Molecular target: T1, cynomolgus TIGIT over-expressed on CHO-K1 cells (cynomolgus, UniProt A0A7N9I9V4 89-312)
T1 construct: whole, on cells; also called CHO-K1/cynomolgus TIGIT cells
T1 sequence (A0A7N9I9V4 entry or part of it): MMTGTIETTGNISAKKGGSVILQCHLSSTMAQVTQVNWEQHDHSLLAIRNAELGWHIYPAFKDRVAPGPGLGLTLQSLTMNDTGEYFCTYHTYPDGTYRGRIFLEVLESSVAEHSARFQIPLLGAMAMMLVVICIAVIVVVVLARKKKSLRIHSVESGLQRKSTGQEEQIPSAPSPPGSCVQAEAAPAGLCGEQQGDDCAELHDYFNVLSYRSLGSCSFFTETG
Assay: FACS, CHO-K1 cells over-expressing cynomolgus TIGIT
# cutoff 70 applies to Top (best-fit); >= gives 1, < gives -1

Look over these answered cases.
{"BINDER": "128E3G7F5 (antibody, V domains shown, Mouse monoclonal antibody; also called mouse anti-human TIGIT monoclonal antibody 128E3G7F5) VH: EVLLQQSGPELVKTGASVKISCKASGYSFTAYYMHWVKQSHGKSLEWIGYISCYNGATTYNQKFKGKATFTVDTSSTTAYMQFNSLTSEDSAVYYCARRVYYGYDEALVYWGQGTSVTVSS VL: DIVMTQSPSSLSVSAGEKVTMTCKSSQSLLNSGNQKNYLAWYQQKPGQPPKLLIYGASTRGSGVPDRFTGSGSGTDFTLTISSVQAEDLAVYYCQNDHSYPYTFGGGTKLEIK", "LABEL": -1}
{"BINDER": "139E2C2D2 (antibody, V domains shown, Mouse monoclonal antibody; also called mouse anti-human TIGIT monoclonal antibody 139E2C2D2) VH: EVQLVESGGDLVKPGGSLKLSCAASGFTFSSYGMSWVRQTPDKRLEWVAIISSGGNYTYYPDSVKGRFTISRDNAKNTLYLQMSSLKSEDTAMYYCARQIHYFFAMDYWGQGTSVTVSS VL: DIQMTQSPASLSVSVGETVTITCRASENIYSNLAWYQQKQGKSPQLLVYAATNLADGAPSRFSGSRSGTQYSLKINSLQSEDFGSYYCQHFWGTAYTFGGGTKLEIK", "LABEL": -1}
{"BINDER": "83G6H11C12 (antibody, V domains shown, Mouse monoclonal antibody; also called mouse anti-human TIGIT monoclonal antibody 83G6H11C12) VH: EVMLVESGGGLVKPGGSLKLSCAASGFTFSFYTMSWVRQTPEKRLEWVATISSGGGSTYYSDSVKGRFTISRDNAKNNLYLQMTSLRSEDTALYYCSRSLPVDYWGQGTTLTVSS VL: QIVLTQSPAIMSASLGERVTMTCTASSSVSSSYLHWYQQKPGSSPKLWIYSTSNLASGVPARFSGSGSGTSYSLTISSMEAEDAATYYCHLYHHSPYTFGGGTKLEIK", "LABEL": 1}

## Input // inclusive: Top (best-fit) at least 70? input: 64G1E9B4 (antibody, V domains shown, Mouse monoclonal antibody; also called mouse anti-human TIGIT monoclonal antibody 64G1E9B4) VH: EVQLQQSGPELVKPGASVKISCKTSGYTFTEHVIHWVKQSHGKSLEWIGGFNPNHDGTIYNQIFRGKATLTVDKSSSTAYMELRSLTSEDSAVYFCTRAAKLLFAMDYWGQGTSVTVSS VL: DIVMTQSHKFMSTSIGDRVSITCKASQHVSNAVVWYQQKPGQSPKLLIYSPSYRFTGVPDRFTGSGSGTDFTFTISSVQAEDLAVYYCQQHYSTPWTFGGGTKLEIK
## Output 1

## Input // inclusive: Top (best-fit) at least 70? input: 100C4E7D11 (antibody, V domains shown, Mouse monoclonal antibody; also called mouse anti-human TIGIT monoclonal antibody 100C4E7D11) VH: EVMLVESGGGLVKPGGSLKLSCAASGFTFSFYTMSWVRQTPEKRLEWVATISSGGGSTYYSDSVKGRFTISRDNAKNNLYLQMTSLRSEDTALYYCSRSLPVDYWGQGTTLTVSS VL: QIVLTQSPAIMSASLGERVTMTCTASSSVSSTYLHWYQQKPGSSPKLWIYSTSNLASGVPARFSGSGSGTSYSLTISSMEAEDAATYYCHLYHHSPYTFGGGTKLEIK
## Output 1
